- test_details: AUClast in Sprague-Dawley rat at 0.5 mg/kg, iv measured upto 24 hrs by LC-MS/MS analysis
- Type: ADME, organism-based
- Set-up: time < 24 hrs, dose 0.5 mg/kg, route iv
- measurement_parameters: in vivo
result_type: AUC(0-t) at 24 h (ng·h/mL)
One number for each entry, in ng·h/mL.

Below are worked cases with known answers.
• O=C1CCc2cc(F)c(C(=O)Nc3cccc(-c4nncn4C4CC4)n3)cc2N1 = 469
• CC(C)n1cnnc1-c1cccc(NC(=O)c2cc3c(cc2F)OC(C)(C)C(=O)N3C)n1 = 218
• O=C1COc2cc(F)c(C(=O)Nc3cccc(-c4nncn4C4CC4)n3)cc2N1 = 592

Shifting focus to the molecule that follows.
INPUT: Give the reported value of AUC(0-t) at 24 h for this record: `CC(C)n1cnnc1-c1cccc(NC(=O)c2cc3c(cc2F)OC(C)(C)C(=O)N3)n1`
OUTPUT: 276

====

Answer each item with its documented log10(Vd).
- test_details: Volume of distribution at steady state in Sprague-Dawley rat at 1 mg/kg, iv measured upto 24 hrs by LC-MS/MS analysis
- Type: ADME, organism-based
- measurement_parameters: in vivo, read-out: Vdss
All values: log10 Vd [L/kg].

Reference set (2 entries):
• O=C1COc2cc(F)c(C(=O)Nc3cccc(-c4nncn4C4CCCC4)n3)cc2N1 = -0.01
• CC(C)n1cnnc1-c1cccc(NC(=O)c2cc3c(cc2F)C(C)(C)CC(=O)N3C)n1 = 0.26

Can you give me log10(Vd) for all of these, one by one?
1. CC(CO)n1cnnc1-c1cccc(NC(=O)c2cc3c(cc2F)CCCC(=O)N3C)n1 (stereo not drawn)
2. O=C1CCCc2cc(F)c(C(=O)Nc3cccc(-c4nncn4C4CC4)n3)cc2N1

OUTPUT:
1: 0.37; 2: -0.15

====

- test_details: Metabolic stability in human liver microsomes assessed as half life at 1 uM measured upto 90 mins by LC-MS/MS analysis
- Type: ADME, Microsome
For each of the compounds below, state its half-life at 1 µM.
Give bare numbers, in h.

- O=C(Nc1cccc(-c2nncn2C2CC2)n1)c1cc2c(cc1F)OCc1cncn1-2: 1.34
- CC(C)n1cnnc1-c1cccc(NC(=O)c2cc3c(cc2F)OCC(=O)N3)n1: 9.74

Count: 4. Required value per item: half-life at 1 µM.
1. CC(CO)n1cnnc1-c1cccc(NC(=O)c2cc3c(cc2F)OCC(=O)N3)n1 (configuration not stated)
2. CC(C)n1cnnc1-c1cccc(NC(=O)c2cc3c(cc2F)OCc2cncn2-3)c1
3. CC(C)n1cnnc1-c1cccc(NC(=O)c2cc3c(cc2F)CCCC(=O)N3)c1
4. CC(C)n1cnnc1-c1cccc(NC(=O)c2cc3c(cc2F)OCc2cncn2-3)n1

OUTPUT:
[2.96, 0.458, 8.31, 1.78]

Parameters: items (list). Returns: half-life at 1 µM for each item.
1. CC(C)n1cnnc1-c1cccc(NC(=O)c2cc3c(cc2F)OC(C)(C)C(=O)N3C)n1
2. CC(CO)n1cnnc1-c1cccc(NC(=O)c2cc3c(cc2F)CCCC(=O)N3)n1 (configuration not stated)
3. CC(C)n1cnnc1-c1cccc(NC(=O)c2cc3c(cc2F)CCCC(=O)N3C)c1
4. CC(C)n1cnnc1-c1cccc(NC(=O)c2cc3c(cc2F)C(C)(C)CC(=O)N3C)n1
5. CC(C)n1cnnc1-c1cccc(NC(=O)c2cc3c(cc2F)CCC(=O)N3)n1

OUTPUT:
[5.26, 16.3, 3.72, 2.71, 4.98]

====

- test_details: AUClast in Sprague-Dawley rat at 2.5 mg/kg, po measured upto 24 hrs by LC-MS/MS analysis
- Format: ADME, organism-based
- Design: dose 2.5 mg/kg, time < 24 hrs, route po
- measurement_parameters: in vivo
Give measured AUC(0-t) at 24 h for each item. Keep answers brief.

Solved entries:
- O=C1COc2cc(F)c(C(=O)Nc3cccc(-c4nncn4C4CC4)n3)cc2N1: 2390 ng·h/mL
- CC(C)n1cnnc1-c1cccc(NC(=O)c2cc3c(cc2F)OC(C)(C)C(=O)N3)n1: 1260 ng·h/mL
- CC(C)n1cnnc1-c1cccc(NC(=O)c2cc3c(cc2F)OC(C)(C)C(=O)N3C)n1: 767 ng·h/mL

# next compound below
INPUT: Return reported AUC(0-t) at 24 h. Input compound: `O=C1CCc2cc(F)c(C(=O)Nc3cccc(-c4nncn4C4CC4)n3)cc2N1`
OUTPUT: 1330 ng·h/mL

====

- test_details: Half life in Sprague-Dawley rat at 2.5 mg/kg, po measured upto 24 hrs by LC-MS/MS analysis
- Format: ADME, organism-based
- measurement_parameters: in vivo
result_type: half-life (h)
Numbers only, in h.

* CC(C)n1cnnc1-c1cccc(NC(=O)c2cc3c(cc2F)OC(C)(C)C(=O)N3C)n1 | 1.3

Count: 3. Required value per item: half-life.
1. O=C1COc2cc(F)c(C(=O)Nc3cccc(-c4nncn4C4CC4)n3)cc2N1
2. CC(C)n1cnnc1-c1cccc(NC(=O)c2cc3c(cc2F)OC(C)(C)C(=O)N3)n1
3. O=C1CCc2cc(F)c(C(=O)Nc3cccc(-c4nncn4C4CC4)n3)cc2N1

OUTPUT:
1. 2.07
2. 1.39
3. 2

====

Assign half-life at 1 µM to each entry below.
- test_details: Metabolic stability in human liver microsomes assessed as half life at 1 uM measured upto 90 mins by LC-MS/MS analysis
- Type: ADME, Microsome
Answers are plain numbers, in h.

Sample answers from the record:
- CC(CO)n1cnnc1-c1cccc(NC(=O)c2cc3c(cc2F)CCCC(=O)N3C)n1 (stereo not given): 3.41
- O=C1COc2cc(F)c(C(=O)Nc3cccc(-c4nncn4-c4ccccc4)n3)cc2N1: 2.55
- O=C(Nc1cccc(-c2nncn2CC2CC2)n1)c1cc2c(cc1F)OCc1cncn1-2: 1.2
- CC(C)n1cnnc1-c1cccc(NC(=O)c2cc3c(cc2F)OCC(=O)N3C)n1: 5.67
- O=C(Nc1cccc(-c2nncn2-c2ccccc2)n1)c1cc2c(cc1F)OCc1cncn1-2: 1.1

// for each compound in input: emit half-life at 1 µM
1. O=C1CCCc2cc(F)c(C(=O)Nc3cccc(-c4nncn4C4CC4)n3)cc2N1
2. O=C1COc2cc(F)c(C(=O)Nc3cccc(-c4nncn4C4CC4)n3)cc2N1
3. O=C(Nc1cccc(-c2nncn2C2CCCC2)n1)c1cc2c(cc1F)OCc1cncn1-2

OUTPUT:
1. 11.9
2. 7.24
3. 0.35

// for each compound in input: emit half-life at 1 µM
1. CC(C)n1cnnc1-c1cccc(NC(=O)c2cc3c(cc2F)CCCC(=O)N3)n1
2. O=C(Nc1cccc(-c2nncn2CC2CC2)c1)c1cc2c(cc1F)OCc1cncn1-2

OUTPUT:
[8.8, 1.12]

====

- test_details: Cmax in Sprague-Dawley rat at 5 mg/kg, po measured upto 24 hrs by LC-MS/MS analysis
- Format: ADME, organism-based
- Parameters: dose 5 mg/kg, time < 24 hrs, route po
- measurement_parameters: in vivo
For each entry below, report its Cmax value.
Numbers only, in ng/mL.

* CC(CO)n1cnnc1-c1cccc(NC(=O)c2cc3c(cc2F)CCCC(=O)N3C)n1 (centres undefined) | 28

I'm hoping you can list Cmax for every compound here, please.
1. CC(C)n1cnnc1-c1cccc(NC(=O)c2cc3c(cc2F)CCCC(=O)N3)c1
2. Cc1cc(F)c(C(=O)Nc2cccc(-c3nncn3C(C)C)n2)cc1-n1cnc(C2CC2)c1 [SELONSERTIB]
3. CC(C)n1cnnc1-c1cccc(NC(=O)c2cc3c(cc2F)C(C)(C)CC(=O)N3C)n1
4. CC(C)n1cnnc1-c1cccc(NC(=O)c2cc3c(cc2F)CCCC(=O)N3C)n1
5. CC(CO)n1cnnc1-c1cccc(NC(=O)c2cc3c(cc2F)OCC(=O)N3)n1 (centres undefined)
6. CC(C)n1cnnc1-c1cccc(NC(=O)c2cc3c(cc2F)CCC(=O)N3C)n1
7. O=C1COc2cc(F)c(C(=O)Nc3cccc(-c4nncn4C4CCCC4)n3)cc2N1
8. CC(C)n1cnnc1-c1cccc(NC(=O)c2cc3c(cc2F)OCc2cncn2-3)n1

OUTPUT:
1. 109
2. 6030
3. 550
4. 582
5. 27
6. 964
7. 1490
8. 794

====

- test_details: Half life in Sprague-Dawley rat at 1 mg/kg, iv measured upto 24 hrs by LC-MS/MS analysis
- Format: ADME, organism-based
- measurement_parameters: in vivo
Task for the reader: assign each of the following compounds its reported half-life.
Give bare numbers, in min.

Field: example entries. Status: answers known.
- CC(CO)n1cnnc1-c1cccc(NC(=O)c2cc3c(cc2F)CCCC(=O)N3C)n1 (stereo not given): 37.8
- O=C1CCCc2cc(F)c(C(=O)Nc3cccc(-c4nncn4C4CC4)n3)cc2N1: 42.6
- CC(C)n1cnnc1-c1cccc(NC(=O)c2cc3c(cc2F)C(C)(C)CC(=O)N3)n1: 59.4
- CC(C)n1cnnc1-c1cccc(NC(=O)c2cc3c(cc2F)OCc2cncn2-3)n1: 40.2

Now for a further compound.
INPUT: For the compound CC(CO)n1cnnc1-c1cccc(NC(=O)c2cc3c(cc2F)CCCC(=O)N3)n1 (stereo not given) , give its reported half-life.
OUTPUT: 16.8

FYI, the data here is from ChEMBL document CHEMBL5344477.
